These data points were gathered from patent US20240226228A1.

Tested on: red blood cells
protocol_notes: Hemolysis assay
Format: cell-based, Sprague-Dawley mouse
Where a SMILES comes first, the peptide text is derived from it. [ ]: non-standard residue; d: D form. Nphe = O=C(O)CNCc1ccccc1; Nlys = NCCCCNCC(=O)O
Recorded HC10, one value per entry.

compound: NCCCCNCC(=O)N(CC(=O)N(CC(=O)N(CCCCN)CC(=O)N(CC(=O)N(CC(=O)N(CCCCN)CC(=O)N(CC(=O)N(CC(=O)N(CCCCN)CC(=O)N(CC(=O)N(CC(N)=O)Cc1ccccc1)Cc1ccccc1)Cc1ccccc1)Cc1ccccc1)Cc1ccccc1)Cc1ccccc1)Cc1ccccc1)Cc1ccccc1 [Peptoid 2] (H-[Nlys][Nphe][Nphe][Nlys][Nphe][Nphe][Nlys][Nphe][Nphe][Nlys][Nphe][Nphe]-NH2)
target_of_assay: red blood cells
u: µM
HC10: 20.4
--
compound: C[C@@H](c1ccccc1)N(CC(N)=O)C(=O)CN(C(=O)CN(CCCCN)C(=O)CN(C(=O)CN(C(=O)CN(CCCCN)C(=O)CN(C(=O)CN(C(=O)CN(CCCCN)C(=O)CN(C(=O)CN(CCCCN)C(=O)CN(CCCCN)C(=O)CN(CCc1c[nH]c2ccccc12)C(=O)CNCCc1c[nH]c2ccccc12)[C@@H](C)c1ccccc1)[C@@H](C)c1ccccc1)[C@@H](C)c1ccccc1)[C@@H](C)c1ccccc1)[C@@H](C)c1ccccc1)[C@@H](C)c1ccccc1
target_of_assay: red blood cells
u: µM
HC10: 15.3

* * *

Test system: red blood cells
protocol_notes: Hemolysis assay
Assay type: cell-based, Sprague-Dawley mouse
Protocol: To confirm cytotoxicity by the hemolytic activity of each peptoid synthesized in Example 1, hemolysis analysis was performed. […] A supernatant was obtained and transferred to a new 96-well plate at 150 μL, and absorbance was measured using a spectrophotometer at 540 nm. Percent hemolysis may be calculated by the following Equation 1, and the corresponding results are shown in Tables 11 to 13. % Hemolysis=(A−C)/(B−C)×100 [Equation 1] […]
Where a SMILES comes first, the peptide text is derived from it. [ ]: non-standard residue; d: D form. Gly(N(CH2)2(3-indolyl)) = O=C(O)CNCCc1c[nH]c2ccccc12; Nspe = C[C@H](NCC(=O)O)c1ccccc1; Nphe = O=C(O)CNCc1ccccc1; Nlys = NCCCCNCC(=O)O
Recorded HC50, one value per entry.

compound: C[C@@H](c1ccccc1)N(CC(=O)N(CCCCN)CC(=O)N(CCc1c[nH]c2ccccc12)CC(=O)N(CCc1c[nH]c2ccccc12)CC(N)=O)C(=O)CN(CCCCN)C(=O)CN(CCCCN)C(=O)CN(C(=O)CN(C(=O)CN(CCCCN)C(=O)CN(C(=O)CN(C(=O)CNCCCCN)[C@@H](C)c1ccccc1)[C@@H](C)c1ccccc1)[C@@H](C)c1ccccc1)[C@@H](C)c1ccccc1 [Peptoid 29-2] (H-[Nlys][Nspe][Nspe][Nlys][Nspe][Nspe][Nlys][Nlys][Nspe][Nlys][Gly(N(CH2)2(3-indolyl))][Gly(N(CH2)2(3-indolyl))]-NH2)
HC50: >100/>100 μM
//
compound: C[C@@H](c1ccccc1)N(CC(=O)N(CCCCN)CC(=O)N(CCc1c[nH]c2ccccc12)CC(=O)N(CCc1c[nH]c2ccccc12)CC(N)=O)C(=O)CN(CCCCN)C(=O)CN(CCCCN)C(=O)CN(Cc1ccccc1)C(=O)CN(Cc1ccccc1)C(=O)CN(CCCCN)C(=O)CN(C(=O)CN(C(=O)CNCCCCN)[C@@H](C)c1ccccc1)[C@@H](C)c1ccccc1 [Peptoid 40] (H-[Nlys][Nspe][Nspe][Nlys][Nphe][Nphe][Nlys][Nlys][Nspe][Nlys][Gly(N(CH2)2(3-indolyl))][Gly(N(CH2)2(3-indolyl))]-NH2)
HC50: >100/>100 μM
//
compound: C[C@@H](c1ccccc1)N(CC(N)=O)C(=O)CN(CCCCN)C(=O)CN(CCCCN)C(=O)CN(C(=O)CN(C(=O)CN(CCCCN)C(=O)CN(C(=O)CN(C(=O)CN(CCCCN)C(=O)CN(CCc1c[nH]c2ccccc12)C(=O)CN(CCc1c[nH]c2ccccc12)C(=O)CNCCCCN)[C@@H](C)c1ccccc1)[C@@H](C)c1ccccc1)[C@@H](C)c1ccccc1)[C@@H](C)c1ccccc1 [Peptoid 32-2]
HC50: > 100 µM

* * *

Recorded HC50, one value per entry.
Test system: red blood cells
protocol_notes: Hemolysis assay
Format: cell-based, Sprague-Dawley mouse
Where a SMILES comes first, the peptide text is derived from it. [ ]: non-standard residue; d: D form. Gly(N(CH2)2(3-indolyl)) = O=C(O)CNCCc1c[nH]c2ccccc12; Nspe = C[C@H](NCC(=O)O)c1ccccc1; Nlys = NCCCCNCC(=O)O
metric: HC50 (µM)

compound: C[C@@H](c1ccccc1)N(CC(N)=O)C(=O)CN(C(=O)CN(CCCCN)C(=O)CN(C(=O)CN(C(=O)CN(CCCCN)C(=O)CN(C(=O)CN(C(=O)CN(CCCCN)C(=O)CN(Cc1ccccc1)C(=O)CN(Cc1ccccc1)C(=O)CNCCCCN)[C@@H](C)c1ccccc1)[C@@H](C)c1ccccc1)[C@@H](C)c1ccccc1)[C@@H](C)c1ccccc1)[C@@H](C)c1ccccc1
metric: HC50
u: µM
qual: =
measured_number: 36.5
--
compound: C[C@@H](c1ccccc1)N(CC(N)=O)C(=O)CN(C(=O)CN(CCCCN)C(=O)CN(C(=O)CN(C(=O)CN(CCCCN)C(=O)CN(C(=O)CN(C(=O)CN(CCCCN)C(=O)CN(CCc1c[nH]c2ccccc12)C(=O)CN(C(=O)CNCCCCN)[C@@H](C)c1ccccc1)[C@@H](C)c1ccccc1)[C@@H](C)c1ccccc1)[C@@H](C)c1ccccc1)[C@@H](C)c1ccccc1)[C@@H](C)c1ccccc1 [Peptoid 10-1]
metric: HC50
u: µM
qual: =
measured_number: 37.8
--
compound: C[C@@H](c1ccccc1)N(CC(N)=O)C(=O)CN(C(=O)CN(CCCCN)C(=O)CN(C(=O)CN(C(=O)CN(CCCCN)C(=O)CN(C(=O)CN(C(=O)CN(CCCCN)C(=O)CN(C(=O)CN(C(=O)CN(CCCCN)C(=O)CNCCc1c[nH]c2ccccc12)[C@@H](C)c1ccccc1)[C@@H](C)c1ccccc1)[C@@H](C)c1ccccc1)[C@@H](C)c1ccccc1)[C@@H](C)c1ccccc1)[C@@H](C)c1ccccc1)[C@@H](C)c1ccccc1
metric: HC50
u: µM
qual: =
measured_number: 13.9
--
compound: C[C@@H](c1ccccc1)N(CC(N)=O)C(=O)CN(C(=O)CN(CCCCN)C(=O)CN(C(=O)CN(C(=O)CN(CCCCN)C(=O)CN(C(=O)CN(C(=O)CN(CCCCN)C(=O)CN(C(=O)CN(C(=O)CN(CCCCN)C(=O)CN(CCc1c[nH]c2ccccc12)C(=O)CNCCc1c[nH]c2ccccc12)[C@@H](C)c1ccccc1)[C@@H](C)c1ccccc1)[C@@H](C)c1ccccc1)[C@@H](C)c1ccccc1)[C@@H](C)c1ccccc1)[C@@H](C)c1ccccc1)[C@@H](C)c1ccccc1
metric: HC50
u: µM
qual: =
measured_number: 22.0
--
compound: C[C@@H](c1ccccc1)N(CC(=O)N(CCCCN)CC(=O)N(CC(=O)N(CC(=O)N(CCCCN)CC(=O)N(CC(=O)N(CC(=O)N(CCCCN)CC(=O)N(CC(=O)N(CC(=O)N(CCCCN)CC(=O)N(CCCCN)CC(N)=O)[C@@H](C)c1ccccc1)[C@@H](C)c1ccccc1)[C@@H](C)c1ccccc1)[C@@H](C)c1ccccc1)[C@@H](C)c1ccccc1)[C@@H](C)c1ccccc1)C(=O)CNCCc1c[nH]c2ccccc12 [Peptoid 64] (H-[Gly(N(CH2)2(3-indolyl))][Nspe][Nlys][Nspe][Nspe][Nlys][Nspe][Nspe][Nlys][Nspe][Nspe][Nlys][Nlys]-NH2)
metric: HC50
u: µM
qual: >
measured_number: 100

* * *

System: red blood cells
protocol_notes: Hemolysis assay
Format: cell-based, Sprague-Dawley mouse
Where a SMILES comes first, the peptide text is derived from it. [ ]: non-standard residue; d: D form. Nspe = C[C@H](NCC(=O)O)c1ccccc1; Nlys = NCCCCNCC(=O)O
Recorded HC10, one value per entry.

molecule: C[C@H](NCC(=O)N(CCCCN)CC(=O)N(CC(=O)N(CC(=O)N(CCCCN)CC(=O)N(CC(=O)N(CC(=O)N(CCCCN)CC(=O)N(CC(=O)N(CC(=O)N(CCCCN)CC(=O)N(CC(N)=O)[C@@H](C)c1ccccc1)[C@@H](C)c1ccccc1)[C@@H](C)c1ccccc1)[C@@H](C)c1ccccc1)[C@@H](C)c1ccccc1)[C@@H](C)c1ccccc1)[C@@H](C)c1ccccc1)c1ccccc1 [Peptoid 48] (H-[Nspe][Nlys][Nspe][Nspe][Nlys][Nspe][Nspe][Nlys][Nspe][Nspe][Nlys][Nspe]-NH2)
target_of_assay: red blood cells
HC10, µM: 25.7
//
molecule: C[C@@H](c1ccccc1)N(CC(N)=O)C(=O)CN(C(=O)CN(CCCCN)C(=O)CN(C(=O)CN(C(=O)CN(CCCCN)C(=O)CN(C(=O)CN(C(=O)CN(CCCCN)C(=O)CN(CCc1c[nH]c2ccccc12)C(=O)CN(CCc1c[nH]c2ccccc12)C(=O)CNCCCCN)[C@@H](C)c1ccccc1)[C@@H](C)c1ccccc1)[C@@H](C)c1ccccc1)[C@@H](C)c1ccccc1)[C@@H](C)c1ccccc1 [Peptoid 14]
target_of_assay: red blood cells
HC10, µM: 12.5
//
molecule: C[C@@H](c1ccccc1)N(CC(N)=O)C(=O)CN(C(=O)CN(CCCCN)C(=O)CN(C(=O)CN(CCc1c[nH]c2ccccc12)C(=O)CN(CCCCN)C(=O)CN(CCc1c[nH]c2ccccc12)C(=O)CN(C(=O)CN(CCCCN)C(=O)CN(C(=O)CN(C(=O)CNCCCCN)[C@@H](C)c1ccccc1)[C@@H](C)c1ccccc1)[C@@H](C)c1ccccc1)[C@@H](C)c1ccccc1)[C@@H](C)c1ccccc1 [Peptoid 15-1]
target_of_assay: red blood cells
HC10, µM: 50.4
